experiment: chemical genetic growth profiling, strain panel (AID 1159580);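 further: tested at 20 µM; growth read once vehicle control cultures reached saturation at 30 °C; 1 = growth at the plate median or of vehicle wells; lower values mean less growth of the strain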; settings: S. cerevisiae deletion strains, growth OD, locus YER110C, hits give low values
Out of some 5,500 compounds screened, about 2,000 (36%) were called active. Roughly 18% stayed inconclusive and do not appear here. This is one part of the list.
Label label 1 when normalized growth < 1; otherwise label 0.

Worked examples follow.
>>> print(df.to_string())
                                   molecule  class_name
0  O=c1ccn([C@@H]2O[C@H](COP(=O)(O)OP(=O)(O)OP(=O)(O)O)[C@@H](O)[C@H]2O)c(=O)[nH]1     label 1
1  C[C@@H]1C[C@@H]([C@H](O)CC2CC(=O)NC(=O)C2)C(=O)[C@@H](C)C1     label 1
2                CS(=O)(=O)OCCCCOS(C)(=O)=O     label 1
3  CCCCC(CC)CN=C(N)NC(N)=NCCCCCCN=C(N)NC(N)=NCC(CC)CCCC (centres undefined)     label 1

Pending molecule:
Quick check: does O=C1N=C(O)CN1/N=C\c1ccc(-c2ccc([N+](=O)[O-])cc2)o1 have normalized growth under 1?
label 0

====

A collection of molecules and their measured normalized growth
experiment: chemical genetic growth profiling, strain panel (AID 1159580);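 further: tested at 20 µM; growth read once vehicle control cultures reached saturation at 30 °C; 1 = growth at the plate median or of vehicle wells; lower values mean less growth of the strain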; conditions: S. cerevisiae deletion strains, growth OD, locus YEL061C, strain CIN8, hits give low values
Among all 5,500 compounds or so, about 2,000 (36%) were called active. Inconclusive results (about 18%) are left out. The list shows a part of the results.
Answer as a number with no unit attached.

The cases that follow already have their normalized growth on record.
In [3]: df
Out[3]:
                                   molecule  quantitative_readout
0            CCOC(=O)c1cc(-c2ccc(N)cc2)oc1C                  0.59
1  CC(=O)O[C@H]1CC[C@@]2(C)C(=CCC3C2CC[C@]2(C)C(=O)CCC32)C1 (stereo not given in full)                 0.928
2                        CCOP(=S)(OCC)SCSCC                  1.01

What measured normalized growth goes with CC(=O)O[C@H]1CC[C@@]2(C)C(=CCC3C2CC[C@@]2(C)C3CC[C@@H]2C(C)CCCC(C)C)C1 (stereo not given in full) ?
1.01

Now this one: COc1cc2c(cc1O)CC1c3c(cc(O)c(OC)c3-2)CCN1C (stereo not given)
0.998

Param item: CC12CCC(CC1)C(C)(C)O2
1

Can you handle COc1ccc2c(c1O)-c1c(OC)c(OC)cc3c1[C@H](C2)N(C)CC3 next?
1.02

Continue with CC1CC2C(C(O)CC3(C)C2CCC3(O)C(=O)COC(=O)CCC(=O)O)C2(C)C=CC(=O)C=C12 (stereo not given)
1.01

Query COc1cc2c3cc1Oc1cc(ccc1O)OC1c4c(cc(OC)c(O)c4Oc4ccc(cc4)CC3N(C)CC2)CCN1C (stereo not given) next
0.985

// repeat for CN1CCc2cccc3c2C1Cc1ccc(O)c(O)c1-3 (stereo not given) and report
1.01

====

experiment: chemical genetic growth profiling, strain panel (AID 1159580);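 further: tested at 20 µM; growth read once vehicle control cultures reached saturation at 30 °C; 1 = growth at the plate median or of vehicle wells; lower values mean less growth of the strain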; conditions: S. cerevisiae deletion strains, growth OD, locus YKR026C, strain gcn3, hits give low values
Screen size: about 5,500 compounds; about 2,000 (36%) were called active. Inconclusive results (about 18%) are left out. This is one part of the list.
// returns NO unless normalized growth is strictly below 1, in which case YES

>>> print(df.to_string())
                                   molecule  class_name
0  CC(=O)O[C@H]1CC[C@@]2(C)C(=CCC3C2CC[C@]2(C)C(=O)CCC32)C1 (stereo partly specified)          NO
1           CCn1cc(C(=O)O)c(=O)c2ccc(C)nc21         YES

Shift focus to the following entry.
Please let me know if O=C(O)c1cc(=O)c2c(OCC(O)COc3cccc4oc(C(=O)O)cc(=O)c34)cccc2o1 shows normalized growth below 1.
YES

FYI, the data here is from PubChem BioAssay AID1159580.
